Quick reference for SPOT intensity among some binders
target_desc: T1, Lsb4, P32793
T1 sequence (P32793 402-468, looked up): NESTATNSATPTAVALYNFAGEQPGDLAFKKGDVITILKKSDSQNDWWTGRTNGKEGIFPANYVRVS
procedure_text: SPOT array
study_conditions: median of control spots 397
quantity_name: SPOT intensity

binder=RPKRRAPPPVPKKPS quantity_name="SPOT intensity" measurement=129
binder=PSTMDFPKLPSFQNS quantity_name="SPOT intensity" measurement=67
binder=ANNQGPPNLPARDKS quantity_name="SPOT intensity" measurement=642
binder=RRARRQMGIPTISQV quantity_name="SPOT intensity" measurement=16
binder=KFIPSRPAPKPPSSA quantity_name="SPOT intensity" measurement=78
binder=IKTRSVPKIPSIESV quantity_name="SPOT intensity" measurement=166
binder=RLPAPPPPPRRGPAP quantity_name="SPOT intensity" measurement=0
